Catalogue of inhibition at 10 µM readings, one per entry.
tgt: KMO mouse enzyme (Mus musculus)
Construct: KMO enzyme prepared at Evotec from mouse liver (4-6 weeks old) via mitochondria isolation; from tissue; host or cells: mouse liver (4-6 weeks old), mitochondria isolation at Evotec
Sequence (Q91WN4 whole entry): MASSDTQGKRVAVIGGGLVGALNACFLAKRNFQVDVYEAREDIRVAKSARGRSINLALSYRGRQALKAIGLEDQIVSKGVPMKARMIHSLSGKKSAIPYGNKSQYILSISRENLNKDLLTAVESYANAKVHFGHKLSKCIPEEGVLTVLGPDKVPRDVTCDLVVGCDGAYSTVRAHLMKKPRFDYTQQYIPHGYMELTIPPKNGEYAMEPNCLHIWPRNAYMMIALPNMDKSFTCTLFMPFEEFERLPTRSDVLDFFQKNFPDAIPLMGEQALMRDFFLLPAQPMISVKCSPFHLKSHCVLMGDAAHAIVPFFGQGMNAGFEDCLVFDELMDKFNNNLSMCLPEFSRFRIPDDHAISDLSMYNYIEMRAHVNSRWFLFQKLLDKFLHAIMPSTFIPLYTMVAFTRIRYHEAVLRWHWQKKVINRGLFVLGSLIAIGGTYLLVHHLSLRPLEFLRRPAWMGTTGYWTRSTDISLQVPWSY
experiment.notes: Mouse KMO enzyme assay: L-kynurenine hydroxylation to 3OH-KYN by LC/MS
Type: biochemical
condition.context: compound at 10 μM; KMO from mouse liver mitochondria; read-out: INH.Mouse @ 10 μM

[
  {
    "compound": "O=c1[nH]c(-c2cc(-c3ccc(OC4CC4)c(Cl)c3)ncn2)no1",
    "readout.units": "%",
    "inhibition at 10 µM": 93
  },
  {
    "compound": "Clc1cc(-c2cc(-c3ncco3)ncn2)ccc1OC1CC1",
    "readout.units": "%",
    "inhibition at 10 µM": 71
  },
  {
    "compound": "O=C(O)C1CN(c2cc(-c3ccc(Cl)c(Cl)c3)ncn2)CCN1 (centres unmarked)",
    "readout.units": "%",
    "inhibition at 10 µM": 0
  },
  {
    "compound": "O=C(O)[C@H]1CCCN1c1cc(-c2ccc(Cl)c(Cl)c2)ncn1",
    "readout.units": "%",
    "inhibition at 10 µM": 7
  },
  {
    "compound": "FC(F)(F)c1c[nH]c(-c2cc(-c3ccc(Cl)c(Cl)c3)ncn2)n1",
    "readout.units": "%",
    "inhibition at 10 µM": 0
  }
]

====

tgt: KMO mouse enzyme (Mus musculus)
Construct: KMO enzyme prepared at Evotec from mouse liver (4-6 weeks old) via mitochondria isolation; from tissue; host or cells: mouse liver (4-6 weeks old), mitochondria isolation at Evotec
experiment.notes: Mouse KMO enzyme assay: L-kynurenine hydroxylation to 3OH-KYN by LC/MS
Type: biochemical
condition.context: compound at 10 μM; KMO from mouse liver mitochondria; read-out: INH.Mouse @ 10 μM

[
  {
    "compound": "O=C(O)C1CCN(c2cc(-c3ccc(Cl)c(Cl)c3)ncn2)C1 (stereo not drawn)",
    "inhibition at 10 µM": "14%"
  },
  {
    "compound": "CC(C)Oc1ccc(-c2cc(C3CNC(C(=O)O)C3)ncn2)cc1Cl (stereo not drawn)",
    "inhibition at 10 µM": "71%"
  },
  {
    "compound": "O=C(O)C1CCC(c2cc(-c3ccc(OC4CC4)c(Cl)c3)ncn2)N1 (stereo not drawn)",
    "inhibition at 10 µM": "84%"
  },
  {
    "compound": "O=C(O)C1CNCCN1c1cc(-c2ccc(Cl)c(Cl)c2)ncn1 (stereo not drawn)",
    "inhibition at 10 µM": "30%"
  },
  {
    "compound": "Clc1cc(-c2cc(-c3nn[nH]n3)ncn2)ccc1OC1CC1",
    "inhibition at 10 µM": "100%"
  },
  {
    "compound": "O=C(O)[C@@H]1CCCN1c1cc(-c2ccc(Cl)c(Cl)c2)ncn1",
    "inhibition at 10 µM": "11%"
  }
]
